Measured values drawn from the supplement of paper PMC11061612 for this set.

System: SBC-5 (Small Cell Lung Carcinoma)
measurement.description: combination Emax (second highest fraction inhibited in the dose matrix, 72 h); higher = more inhibition; extreme values may be limits of the assay
Readings of combination Emax for the listed compounds
value.type: combination Emax

>>> result_number("CC1(C)CCC(CN2CCN(c3ccc(C(=O)NS(=O)(=O)c4ccc(NCC5CCOCC5)c([N+](=O)[O-])c4)c(Oc4cnc5[nH]ccc5c4)c3)CC2)=C(c2ccc(Cl)cc2)C1 [Venetoclax] + C=CCn1c(=O)c2cnc(Nc3ccc(N4CCN(C)CC4)cc3)nc2n1-c1cccc(C(C)(C)O)n1 [AZD1775] (first compound max 1 µM, partner max 1 µM)")
0.459
>>> result_number("COc1nnc2ccc(N3CCC(c4ccc(OCCN5CCN(C)C(=O)[C@H]5C)cc4)CC3)nn12 [AZD5153] + CC1(C)CCC(CN2CCN(c3ccc(C(=O)NS(=O)(=O)c4ccc(NCC5CCOCC5)c([N+](=O)[O-])c4)c(Oc4cnc5[nH]ccc5c4)c3)CC2)=C(c2ccc(Cl)cc2)C1 [Venetoclax] (first compound max 1 µM, 7x7, partner max 1 µM)")
0.518
>>> result_number("CN(CCO)CC[C@H](CSc1ccccc1)Nc1ccc(S(=O)(=O)NC(=O)c2ccc(N3CCC([C@@H](O)c4ccccc4-c4ccc(Cl)cc4)CC3)cc2)cc1S(=O)(=O)C(F)(F)F [AZD4320] + CCN(CCO)CCCOc1ccc2c(Nc3cc(CC(=O)Nc4cccc(F)c4)[nH]n3)ncnc2c1 [AZD2811] (first compound max 1 µM, 7x7, partner max 1 µM)")
0.3

###

Test system: MRK-nu-1 (Breast Carcinoma)
measurement.description: combination Emax (second highest fraction inhibited in the dose matrix, 72 h); higher = more inhibition; extreme values may be limits of the assay
Decide by combination Emax: equal to or exceeding 0.4 means YES, less means NO.

>>> group_label("CC(=O)c1c(C)c2cnc(Nc3ccc(N4CCNCC4)cn3)nc2n(C2CCCC2)c1=O [Palbociclib] + Cn1cnc2c(F)c(Nc3ccc(Br)cc3Cl)c(C(=O)NOCCO)cc21 [Selumetinib] (first compound max 10 µM, 7x7, partner max 10 µM)")
"YES"
>>> group_label("CN(CCO)CC[C@H](CSc1ccccc1)Nc1ccc(S(=O)(=O)NC(=O)c2ccc(N3CCC([C@@H](O)c4ccccc4-c4ccc(Cl)cc4)CC3)cc2)cc1S(=O)(=O)C(F)(F)F [AZD4320] + Nc1ccn([C@@H]2O[C@H](CO)[C@@H](O)C2(F)F)c(=O)n1 [Gemcitabine] (first compound max 1 µM, 7x7, partner max 0.3 µM)")
"YES"
>>> group_label("COc1cc2ncnc(Nc3ccc(F)c(Cl)c3)c2cc1OCCCN1CCOCC1 [Gefitinib] + CC(C)n1c(=O)n(C)c2cnc3cc(F)c(-c4ccc(OCCCN5CCCCC5)nc4)cc3c21 [AZD1390] (first compound max 10 µM, 7x7, partner max 0.3 µM)")
"YES"
>>> group_label("COc1nnc2ccc(N3CCC(c4ccc(OCCN5CCN(C)C(=O)[C@H]5C)cc4)CC3)nn12 [AZD5153] + Cc1c2c(nn1C)CSCc1cc(n(C)n1)CSc1cc(c3ccccc3c1)OCCCc1c(C(=O)O)n(C)c3c-2c(Cl)ccc13 [AZD5991] (first compound max 1 µM, 7x7, partner max 1 µM)")
"YES"
>>> group_label("Cc1cc2ncnn2cc1Nc1ncc2c(n1)n(C1CCOCC1)c(=O)n2C [AZD7648] + C[C@@H]1COCCN1C2=NC(=NC(=C2)C3(CC3)[S@](=N)(=O)C)C4=C5C=CNC5=NC=C4 [AZD6738] (first compound max 10 µM, 7x7, partner max 10 µM)")
"YES"
>>> group_label("Cc1c2c(nn1C)CSCc1cc(n(C)n1)CSc1cc(c3ccccc3c1)OCCCc1c(C(=O)O)n(C)c3c-2c(Cl)ccc13 [AZD5991] + C[C@@H](Nc1cc(F)cc(F)c1)c1cc(C(=O)N(C)C)cc2c(=O)cc(N3CCOCC3)oc12 [AZD8186] (first compound max 1 µM, 7x7, partner max 3 µM)")
"YES"
>>> group_label("O=C(c1cc(Cc2n[nH]c(=O)c3ccccc23)ccc1F)N1CCN(C(=O)C2CC2)CC1 [Olaparib] + CC1(C)CCC(CN2CCN(c3ccc(C(=O)NS(=O)(=O)c4ccc(NCC5CCOCC5)c([N+](=O)[O-])c4)c(Oc4cnc5[nH]ccc5c4)c3)CC2)=C(c2ccc(Cl)cc2)C1 [Venetoclax] (first compound max 10 µM, 7x7, partner max 1 µM)")
"NO"
>>> group_label("CC1(C)CCC(CN2CCN(c3ccc(C(=O)NS(=O)(=O)c4ccc(NCC5CCOCC5)c([N+](=O)[O-])c4)c(Oc4cnc5[nH]ccc5c4)c3)CC2)=C(c2ccc(Cl)cc2)C1 [Venetoclax] + C[C@@H](Nc1cc(F)cc(F)c1)c1cc(C(=O)N(C)C)cc2c(=O)cc(N3CCOCC3)oc12 [AZD8186] (first compound max 1 µM, 7x7, partner max 3 µM)")
"NO"
>>> group_label("COc1cc2c(cc1OCCCCCOc1cc3c(cc1OC)C(=O)N1C=C(C)C[C@H]1C=N3)N=C[C@@H]1CC(C)=CN1C2=O [SG3199] + O=C(c1cc(Cc2n[nH]c(=O)c3ccccc23)ccc1F)N1CCN(C(=O)C2CC2)CC1 [Olaparib] (first compound max 0.001 µM, 7x7, partner max 10 µM)")
"NO"
>>> group_label("C=CCn1c(=O)c2cnc(Nc3ccc(N4CCN(C)CC4)cc3)nc2n1-c1cccc(C(C)(C)O)n1 [AZD1775] + O=C(c1cc(Cc2n[nH]c(=O)c3ccccc23)ccc1F)N1CCN(C(=O)C2CC2)CC1 [Olaparib] (first compound max 1 µM, partner max 10 µM)")
"NO"
>>> group_label("COc1nnc2ccc(N3CCC(c4ccc(OCCN5CCN(C)C(=O)[C@H]5C)cc4)CC3)nn12 [AZD5153] + CCN(CCO)CCCOc1ccc2c(Nc3cc(CC(=O)Nc4cccc(F)c4)[nH]n3)ncnc2c1 [AZD2811] (first compound max 1 µM, 7x7, partner max 1 µM)")
"YES"
>>> group_label("C[C@@H](c1ccc2nccn2c1)n1nnc2ncc(-c3cnn(C)c3)nc21 [Savolitinib] + Cc1c2c(nn1C)CSCc1cc(n(C)n1)CSc1cc(c3ccccc3c1)OCCCc1c(C(=O)O)n(C)c3c-2c(Cl)ccc13 [AZD5991] (first compound max 1 µM, 7x7, partner max 1 µM)")
"YES"
